Entries and their cAMP Emax values follow.
# ASSAY_SYSTEM: human glucagon-like peptide-1 (GLP-1) receptor (human) (UniProt P43220)
# ASSAY_EXPLANATION: cell-based or functional assay
RECORDED_METRIC: cAMP Emax (%)

- BINDER: "YXEGTXTSDYXIXLDXKAQXEFIXXLIKGGPSSGAPPPS (Y-Aib-EGT-αMeF(2F)-TSDY-Aib-I-αMeL-LD-Orn-K((2-[2-(2-Amino-ethoxy)-ethoxy]-acetyl)2-(γ-Glu)-CO-(CH2)12-CO2H)AQ-Aib-EFI-(D-Glu)-αMeY-LIK((2-[2-(2-Amino-ethoxy)-ethoxy]-acetyl)2-(γ-Glu)-CO-(CH2)12-CO2H)GGPSSGAPPPS-NH2) [Example 231]"
  RECORDED_METRIC: "cAMP Emax"
  READOUT_UNITS: "%"
  EXPERIMENTAL_RESULT: 107
- BINDER: "YXEGTXTSDXXIXLDXIAQXKFIXXLIEGGPSSGAPPPSK (Y-Aib-EGT-αMeF(2F)-TSD-4Pal-Aib-I-αMeL-LD-Orn-IAQ-Aib-K((2-[2-(2-Amino-ethoxy)-ethoxy]-acetyl)2-(γ-Glu)-(10-(4-carboxyphenoxy)decanoyl))FI-(D-Glu)-αMeY-LIEGGPSSGAPPPSK((2-[2-(2-Amino-ethoxy)-ethoxy]-acetyl)2-(γ-Glu)-(10-(4-carboxyphenoxy)decanoyl))-NH2) [Example 248]"
  RECORDED_METRIC: "cAMP Emax"
  READOUT_UNITS: "%"
  EXPERIMENTAL_RESULT: 89.1
- BINDER: "YXEGTXTSDYXIXLDXIAQXKFIXXLIKGGPSSGAPPPS (Y-Aib-EGT-αMeF(2F)-TSDY-Aib-I-αMeL-LD-Orn-IAQ-Aib-K((2-[2-(2-Amino-ethoxy)-ethoxy]-acetyl)2-(γ-Glu)-(10-(4-carboxyphenoxy)decanoyl))FI-(D-Glu)-αMeY-LIK((2-[2-(2-Amino-ethoxy)-ethoxy]-acetyl)2-(γ-Glu)-(10-(4-carboxyphenoxy)decanoyl))GGPSSGAPPPS-NH2) [Example 240]"
  RECORDED_METRIC: "cAMP Emax"
  READOUT_UNITS: "%"
  EXPERIMENTAL_RESULT: 98.5
- BINDER: "YXEGTXTSDXXIXLDXIAQXKFIXXLIKGGPSSGAPPPS (Y-Aib-EGT-αMeF(2F)-TSD-4Pal-Aib-I-αMeL-LD-Orn-IAQ-Aib-K((2-[2-(2-Amino-ethoxy)-ethoxy]-acetyl)2-(γ-Glu)-(10-(4-carboxyphenoxy)decanoyl))FI-(D-Glu)-αMeY-LIK((2-[2-(2-Amino-ethoxy)-ethoxy]-acetyl)2-(γ-Glu)-(10-(4-carboxyphenoxy)decanoyl))GGPSSGAPPPS-NH2) [Example 247]"
  RECORDED_METRIC: "cAMP Emax"
  READOUT_UNITS: "%"
  EXPERIMENTAL_RESULT: 108
- BINDER: "YXEGTXTSDXSIXLDXIAQXEFIXXLIKGGPSSGAPPPSK (Y-Aib-EGT-αMeF(2F)-TSD-4Pal-SI-αMeL-LD-Orn-IAQ-Aib-EFI-(D-Glu)-αMeY-LIK((2-[2-(2-Amino-ethoxy)-ethoxy]-acetyl)3-(γ-Glu)-CO-(CH2)12-CO2H)GGPSSGAPPPSK((2-[2-(2-Amino-ethoxy)-ethoxy]-acetyl)3-(γ-Glu)-CO-(CH2)12-CO2H)-NH2) [Example 229]"
  RECORDED_METRIC: "cAMP Emax"
  READOUT_UNITS: "%"
  EXPERIMENTAL_RESULT: 94.3
- BINDER: "YXEGTXTSDYXIXLDXKAQXEFIXXLIEGGPSSGAPPPSK (Y-Aib-EGT-αMeF(2F)-TSDY-Aib-I-αMeL-LD-Orn-K((2-[2-(2-Amino-ethoxy)-ethoxy]-acetyl)2-(γ-Glu)-CO-(CH2)12-CO2H)AQ-Aib-EFI-(D-Glu)-αMeY-LIEGGPSSGAPPPSK((2-[2-(2-Amino-ethoxy)-ethoxyl-acetyl)2-(γ-Glu)-CO-(CH2)12-CO2H)-NH2) [Example 232]"
  RECORDED_METRIC: "cAMP Emax"
  READOUT_UNITS: "%"
  EXPERIMENTAL_RESULT: 103
